These data points were gathered from the RNAGym collection of RNA variant scans (doi:10.7554/elife.80360).

B1: CPEB3 Ribozyme (parent)
chain: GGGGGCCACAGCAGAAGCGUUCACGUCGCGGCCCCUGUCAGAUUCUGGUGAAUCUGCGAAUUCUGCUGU

Variants of: B1
Test: self-cleavage, relative activity (ratio to wild type); higher = more cleavage; co-transcriptional
// self-cleavage lookup, one value per entry
Field format: numeric only.

Recorded results for 4 variants are shown here.
C33U G58A = 1
U21G C27U = 0.112
C18U U26A = 0.669
G19A G58A = 0.132

Proceed to the following item.
Incoming: What value of measured self-cleavage is listed for G2C C35U ?
Outgoing: 0.0408
